tested on: MCF-7 (human breast cancer cells); test: Inhibition of proliferation of tumor cell lines (MTT), MCF-7; assay type: cell-based; details: Homo sapiens, MCF7, MCF-7, 72 h, read-out: IC50 value of compound for inhibition of proliferation of tumor cell lines, MCF-7
TEST READOUT: IC50 (µg/mL)
Write down the numeric answer in µg/mL and omit the unit.

Before answering, review these 3 worked examples.
{"ENTRY SMILES": "C/C=C(/C)C(=O)O[C@H]1C(C)=C[C@]23C(=O)[C@@H](C=C(CO)[C@@H](O)[C@]12O)[C@@H]1C(C)(C)[C@]1(OC(=O)CCCCC)C[C@H]3C", "IC50, µg/mL": 18.6}
{"ENTRY SMILES": "CCCCC/C=C/C=C/C(=O)O[C@@]12C[C@@H](C)[C@]34C=C(C)[C@H](O)[C@@]3(O)[C@H](O)C(CO)=C[C@H](C4=O)[C@@H]1C2(C)C", "IC50, µg/mL": 11.8}
{"ENTRY SMILES": "CCCCCCCCCCCC(=O)O[C@@]12C[C@@H](C)[C@]34C=C(C)[C@H](O)[C@@]3(O)[C@H](O)C(CO)=C[C@H](C4=O)[C@@H]1C2(C)C", "IC50, µg/mL": 6.36}

Now examine the next entry.
Enquiry: Requested read-out: IC50. Entry: CCCCCCCCCCCC(=O)O[C@@]12C[C@@H](C)[C@]34C=C(C)[C@H](OC(=O)CCCCC)[C@@]3(O)[C@H](O)C(CO)=C[C@H](C4=O)[C@@H]1C2(C)C
Return: 14

---

tested on: MCF-7 (human breast cancer cells); assay: Inhibition of proliferation of tumor cell lines (MTT), MCF-7; assay type: cell-based; conditions: Homo sapiens, MCF7, MCF-7, 72 h, read-out: IC50 value of compound for inhibition of proliferation of tumor cell lines, MCF-7
# if measured IC50 < 10 µg/mL: yes  # else: no

{"MOLECULE": "C/C=C(/C)C(=O)OCC1=C[C@@H]2C(=O)[C@]3(C=C(C)[C@H](OC(=O)/C(C)=C\\C)[C@@]3(O)[C@@H]1O)[C@H](C)C[C@]1(OC(=O)CCCCCCCCCCC)[C@H]2C1(C)C [Compound 15a]", "ASSIGNED LABEL": "no"}

Enquiry: Is the reported IC50 for CCCCCCCCCCCC(=O)O[C@@]12C[C@@H](C)[C@]34C=C(C)[C@H](OC(=O)C(C)C(C)C)[C@@]3(O)[C@H](O)C(CO)=C[C@H](C4=O)[C@@H]1C2(C)C (stereo partly shown) strictly below 10 µg/mL?
Return: yes

Enquiry: Another: CCCCCCCCCCCC(=O)O[C@@]12C[C@@H](C)[C@]34C=C(C)[C@H](O)[C@@]3(O)[C@@H]3OC(C)(C)OCC3=C[C@H](C4=O)[C@@H]1C2(C)C [Compound 2b, 13-O-dodecanoyl-ingenol 5,20-acetonide]
Return: no

Enquiry: Another: CCCCCCCC(=O)O[C@@]12C[C@@H](C)[C@]34C=C(C)[C@H](O)[C@@]3(O)[C@H](O)C(CO)=C[C@H](C4=O)[C@@H]1C2(C)C
Return: no

Enquiry: Another: CCCCCCCCCCCC(=O)O[C@@]12C[C@@H](C)[C@]34C=C(C)[C@H](OC(=O)C(C)(C)C)[C@@]3(O)[C@H](O)C(CO)=C[C@H](C4=O)[C@@H]1C2(C)C
Return: yes

Enquiry: Another: C/C=C(/C)C(=O)O[C@H]1C(C)=C[C@]23C(=O)[C@@H](C=C(CO)[C@@H](O)[C@]12O)[C@@H]1C(C)(C)[C@]1(OC(=O)CCCCCCC)C[C@H]3C
Return: no

Enquiry: Another: CC1=C[C@]23C(=O)[C@@H](C4OC4(C)[C@@H](O)[C@]2(O)[C@H]1O)[C@H]1C(C[C@H]3C)C1(C)C (stereo partly shown)
Return: no

Enquiry: Another: CCCCCCCCCC(=O)O[C@@]12C[C@@H](C)[C@]34C=C(C)[C@H](O)[C@@]3(O)[C@H](O)C(CO)=C[C@H](C4=O)[C@@H]1C2(C)C
Return: no

Enquiry: Another: CCCCCCCCCCCC(=O)O[C@@]12C[C@@H](C)[C@]34C=C(C)[C@H](O)[C@@]3(O)[C@H](O)C(C)=C[C@H](C4=O)[C@@H]1C2(C)C
Return: no
